Origin of measurements: patent US20130295102A1

Please respond with reported Hemolytic assay IC50 (nM), 10% serum for every item in the list.
testedSystem: Cynomolgus Factor P (cynomolgus)
assayMethodText: cell-based or functional assay
Answers are plain numbers, in nM.

| binder | unitsLabel | Hemolytic assay IC50 (nM), 10% serum |
| --- | --- | --- |
| NVS966 (Fab, V domains shown, Disulfide-bridged Fab; also called Fab NVS966) VH: EVQLVQSGAEVKKPGESLKISCKGSGYSFTNYWIGWVRQMPGKGLEWMGRIDPGESLTNYAPSFQGQVTISADKSISTAYLQWSSLKASDTAMYYCARTGVADVDMPFAHWGQGTLVTVSS VL: SYVLTQPPSVSVAPGKTARISCSGDNLGSYYVNWYQQKPGQAPVLVIYGDSERPSGIPERFSGSNSGNTATLTISRAQAGDEADYYCGSWDITSFVFGGGTKLTVLG | nM | 13 |

Okay, here is my list. What is Hemolytic assay IC50 (nM), 10% serum for each of these?
1. NVS963 (Fab, V domains shown, Disulfide-bridged Fab; also called Fab NVS963) VH: EVQLVQSGAEVKKPGSSVKVSCKASGGTFSSYAISWVRQAPGQGLEWMGPINPYYGDAIYAQKFQGRVTITADESTSTAYMELSSLRSEDTAVYYCARYYSDYMDYWGQGTLVTVSS VL: QSVLTQPPSVSGAPGQRVTISCTGSSSNIGAGYDVHWYQQLPGTAPKLLIHDNSHRPSGVPDRFSGSKSGTSASLAITGLQSEDEADYYCASYDESAHSVFGGGTKLTVLG
2. NVS965 (Fab, V domains shown, Disulfide-bridged Fab; also called Fab NVS965) VH: EVQLVQSGAEVKKPGSSVKVSCKASGGTFNSYAISWVRQAPGQGLEWMGRIIPIFGTANYAQKFQGRVTITADESTSTAYMELSSLRSEDTAVYYCARHGGYSFDSWGQGTLVTVSS VL: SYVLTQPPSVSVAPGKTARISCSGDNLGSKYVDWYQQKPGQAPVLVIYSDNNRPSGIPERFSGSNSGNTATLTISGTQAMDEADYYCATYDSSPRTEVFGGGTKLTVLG
3. NVS962 (Fab, V domains shown, also called Fab NVS962) VH: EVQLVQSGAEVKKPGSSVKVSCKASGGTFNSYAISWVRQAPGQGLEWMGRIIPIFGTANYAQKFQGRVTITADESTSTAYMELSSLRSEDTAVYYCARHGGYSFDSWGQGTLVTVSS VL: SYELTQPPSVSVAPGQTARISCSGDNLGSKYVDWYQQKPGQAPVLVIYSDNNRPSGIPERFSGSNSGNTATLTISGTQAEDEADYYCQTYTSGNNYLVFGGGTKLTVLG

OUT:
1. 14.5
2. 13.2
3. 16.1

IN: Indicate the recorded Hemolytic assay IC50 (nM), 10% serum value for this binder: NVS965-Q (Fab, V domains shown, NVS965 with heavy chain N30 replaced with glutamine) VH: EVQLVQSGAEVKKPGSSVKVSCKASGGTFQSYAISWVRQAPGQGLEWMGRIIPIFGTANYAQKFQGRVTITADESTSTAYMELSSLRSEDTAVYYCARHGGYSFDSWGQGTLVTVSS VL: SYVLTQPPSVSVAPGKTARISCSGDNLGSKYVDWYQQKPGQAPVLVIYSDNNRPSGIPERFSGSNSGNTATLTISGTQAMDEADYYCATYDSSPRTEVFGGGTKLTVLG
OUT: 14.7
